System: Pneumocystis carinii
Assay: Percent of control growth of Pneumocystis carinii trophozoites was determined
Assay type: functional
Design: concentration or dose not given beside the values
MEASURED_METRIC: Growth (%)

COMPOUND: CC(C)/N=C(\N)c1ccc(N2CCCN(c3ccc(/C(N)=N/C(C)C)cc3)CC2)cc1
CENSORING_OPERATOR: =
NUMERIC_READOUT: 61
--
COMPOUND: N=C(NC1CC1)c1ccc(N2CCCN(c3ccc(C(=N)NC4CC4)cc3)CC2)cc1
CENSORING_OPERATOR: =
NUMERIC_READOUT: 33
--
COMPOUND: COc1cc(Cc2cnc(N)nc2N)cc(OC)c1OC.Cc1cc(NS(=O)(=O)c2ccc(N)cc2)no1 [CO-TRIMOXAZOLE]
CENSORING_OPERATOR: <
NUMERIC_READOUT: 0
--
COMPOUND: N=C(N)c1ccc(N2CCCN(c3ccc(C(=N)N)cc3)CC2)cc1
CENSORING_OPERATOR: <
NUMERIC_READOUT: 0
--
COMPOUND: N=C(NC1CCCC1)c1ccc(N2CCCN(c3ccc(C(=N)NC4CCCC4)cc3)CC2)cc1
CENSORING_OPERATOR: =
NUMERIC_READOUT: 103
